Tested on: U-251
METHOD: NCI tumour cell line growth inhibition, 48 h
Calls of active or inactive are those of the source. Rule as the data show it: active = GI50 up to about 1.1 µM and inactive = higher.
MEASUREMENT_LABEL: GI50

- COMPOUND: "C[C@@]12C=CC3C/C(=N\\C(N)=S)C=C(CCCC4OCCO4)[C@]3(CC1)C2 (some centres not stated)"
  MEASUREMENT_LABEL: "GI50"
  RESULT: "20.5 µM (inactive)"
- COMPOUND: "COc1cc2nc(-c3cccs3)nc(N3CCN(c4ccccc4)CC3)c2cc1OC"
  MEASUREMENT_LABEL: "GI50"
  RESULT: "> 100 µM (inactive)"
- COMPOUND: "CCOc1cc2c(cc1OC)c[n+](C)c1c3cc(OC)c(OC)cc3ccc21"
  MEASUREMENT_LABEL: "GI50"
  RESULT: "> 33.4 µM (inactive)"
- COMPOUND: "CCN1CCN(c2nc3ccccc3nc2C(=O)c2ccc(OC)cc2)CC1"
  MEASUREMENT_LABEL: "GI50"
  RESULT: "39.4 µM (inactive)"
- COMPOUND: "Cc1ccc(C)c(NC(=O)CCc2n[nH]c(=S)o2)c1"
  MEASUREMENT_LABEL: "GI50"
  RESULT: "> 100 µM (inactive)"
- COMPOUND: "COc1ccc(C2NC(=O)Nc3c2c(=O)oc2c3ccc3ccccc32)cc1 (configuration not stated)"
  MEASUREMENT_LABEL: "GI50"
  RESULT: "36.7 µM (inactive)"

Sample `Clc1ccccc1NN(Cc1ccccn1)c1ccccc1Cl` , system: U-251. Its GI50 is 15.8 µM (inactive)

Sample `N#Cc1c2nc3ccccc3nc2n2ccc3ccccc3c12` , system: U-251. Its GI50 is > 100 µM (inactive)

Sample `CCOC(OCC)c1ccc(/C=C/c2cc(OC)c(OC)c(OC)c2)cc1` , system: U-251. Its GI50 is 16.3 µM (inactive)

Sample CCC1C(c2cc(OC)c(OC)c(OC)c2)c2cc3c(cc2OC1N1CCCC1)OCO3 (configuration not stated) , system: U-251. Its GI50 is 2.56 µM (inactive)

Sample `COc1ccc2occ(CCC(=O)O)c2c1` , system: U-251. Its GI50 is > 100 µM (inactive)
